Data provenance is PubChem BioAssay (NCI).

Measurement Protocol: NCI Yeast Anticancer Drug Screen. Data for the bub3 strain (AID 167)
Experimental Setup: S. cerevisiae bub3 mutant strain, at 33.0 µM, hits give high values
Compounds without any hit were thinned out: in the full panel of roughly 79,000, 15% have a hit.
If the reported growth inhibition equals or exceeds 90%, assign satisfied. If not, assign not satisfied.

Oc1c2c(c(O)c3ccccc13)C1(N=N2)c2ccccc2Oc2ccccc21    satisfied
O=C1C(=O)N(c2ccccc2)[C@@]2(c3ccccc3)C(=Nc3ccccc3)OC(c3ccccc3)=C12    not satisfied
OC(Cc1cccc2ccccc12)CN1CCC(c2ccccc2)CC1 (stereo unspecified)    not satisfied

## Input # bool: growth inhibition of CCC(C)(C)c1ccc(Oc2ccccc2)c(N)c1 >= 90%
## Output satisfied

## Input Say whether Cc1oc2ccccc2c(=O)c1Cn1nnc2ccccc21 shows growth inhibition of 90% or more.
## Output not satisfied

* * *

# growth inhibition per record follows
Measurement Protocol: NCI Yeast Anticancer Drug Screen. Data for the sgs1 mgt1 strain (AID 161);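 note: 0% = growth of cultures given vehicle only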
Experimental Setup: S. cerevisiae sgs1 mgt1 strain, at 50.0 µM, hits give high values
The panel holds about 79,000 compounds, 15% with a hit somewhere; the sample as a whole holds those more often. Active and inactive are the calls of the source. Rule as the data show it: active = growth inhibition above about 70%; inactive = the rest.

O=C(C#Cc1ccccc1)Nc1ccccc1    64.7% (inactive)

## Input Supply growth inhibition value. Item: CN(C)CCNCCCNc1c2ccccc2nc2cccc([N+](=O)[O-])c12
## Output 79.7% (active)

## Input Query growth inhibition for Cc1ccc(S(=O)(=O)NC(=O)C2C(=O)CC3(CCCCC3)CC2=O)cc1
## Output -16.6% (inactive)

## Input Provide growth inhibition value for the following molecule: COc1ccc(C(OCC2OC(n3cnc4c(=O)n(Cc5ccccc5[N+](=O)[O-])nnc43)C(O)C2O)(c2ccccc2)c2ccc(OC)cc2)cc1 (stereo not given)
## Output 91.6% (active)

## Input Find the measured growth inhibition of Cc1ccc(NC(Nc2ccc(C)cc2C)=C(C(Cl)=C(Cl)Cl)[N+](=O)[O-])c(C)c1 and report it.
## Output 98.9% (active)

* * *

Catalogue of growth inhibition values
Measurement Protocol: NCI Yeast Anticancer Drug Screen. Data for the rad52 strain (AID 147);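 note: 0% = growth of vehicle-treated control cultures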
Experimental Setup: S. cerevisiae rad52 mutant growth inhibition; at 100.0 µM; hits give high values
This is part of a sample that, as a whole, favours compounds with a hit. Of some 79,000 tested, about 15% had one in any assay.
Form entry: value (%) — number only.

COC1/C=C\C=C(/C)C(=O)NC2=CC(=O)C(=O)C(=C2O)CC(C)CC(OC)C(O)C(C)/C=C(\C)C1OC(N)=O (centres undefined)    97
O=Cc1ccccc1C=O    73
CC(C)OP(=O)(OC(C)C)/C(Cl)=N/Nc1ccc([N+](=O)[O-])cc1    95

## Input Name the recorded growth inhibition of the item CCCCCCCCN1COCC(COc2ccccc2C)OC1 (centres undefined) in your answer.
## Output 99

## Input Item COc1cc2c(cc1OC)[C@@H](Nc1ccc(C#N)cc1)C1COC(=O)[C@@H]1C2c1cc(OC)c(O)c(OC)c1 (some centres undefined) : provide growth inhibition
## Output 93

## Input Indicate the recorded growth inhibition value for this compound: c1ccc(-c2cc(C3CO3)c3ccccc3n2)cc1 (centres undefined)
## Output 98

## Input Fill in growth inhibition for record c1ccc2c(c1)ccn2CCc1c[nH]c2ccccc12
## Output 97

## Input Annotate the compound Cc1ccc(C)c(C(=N)c2ccccc2Cc2ccccc2)c1 with its measured growth inhibition.
## Output 97

## Input Give reported growth inhibition value for O=C(c1cc(=O)c2ccc(O)cc2o1)c1ccc(Cl)cc1Cl
## Output 92
